P-ERK IC50 (nM) Data Set 1 overview
target: human cannabinoid receptor type 1 (CB1) (human, UniProt P21554 1-472); experiment: cell-based or functional assay
Sequence (P21554 whole entry): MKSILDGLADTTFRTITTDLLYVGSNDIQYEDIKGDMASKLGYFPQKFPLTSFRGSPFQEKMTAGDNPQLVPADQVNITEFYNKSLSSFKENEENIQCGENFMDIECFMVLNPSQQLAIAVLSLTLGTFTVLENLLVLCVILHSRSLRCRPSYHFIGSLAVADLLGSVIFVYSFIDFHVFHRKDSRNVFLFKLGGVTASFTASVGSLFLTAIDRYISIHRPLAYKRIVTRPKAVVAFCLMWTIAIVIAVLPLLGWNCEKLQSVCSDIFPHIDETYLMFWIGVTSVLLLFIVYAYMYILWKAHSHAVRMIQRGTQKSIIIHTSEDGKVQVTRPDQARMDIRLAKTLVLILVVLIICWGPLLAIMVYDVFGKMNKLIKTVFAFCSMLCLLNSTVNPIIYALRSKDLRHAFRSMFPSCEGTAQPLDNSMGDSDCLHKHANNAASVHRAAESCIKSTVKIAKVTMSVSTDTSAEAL
assay readout: P-ERK IC50 (nM) Data Set 1

1) M7 mouse anti-huCB-1 antibody (antibody, V domains shown) VH: EVQLQQPGAELVRPGASVKLSCKASSYTFTRYWMNWVKQRPEEGLEWIGMIDPYDSETHYNQKFKDKAILTVDKSSSTAYMQLSTLTSEDSAVYFCARSQPRYYAMDYWGQGTSVTVSS VL: DIQMSQSPSSLSASLGERVSLTCRASQEISGFLSWLQLRPDGTIKRLIYAASSLDSGVPKRFRGSWSGSDYSLTISSLESEDFADYYCLQYSSYPYTFGGGTKLEIK = 117
2) M1 mouse anti-huCB-1 antibody (antibody, V domains shown) VH: QVQLQQSGAELVRPGVSVKISCKGSGYTFTDHALHWVKQSQARSLEWIGIISTYYGDATYNQKFKGKATMTVDKSSSTAYMELARLTSEDSAFYYCARGGLYYGTNYRAMDYWGQGTSVTVSS VL: DIVMTQSQKFMSTSVGDRVSVTCKASQNVGSNVAWYQQKPGQSPKALIYSASYRYSGVPDRFTGSGSGTDFTLTISNVQSEDLAEYFCQQYNNYPFTFGSGTKLEIK = 163
3) M6 mouse anti-huCB-1 antibody (antibody, V domains shown) VH: EVQLQQSGPELVKPGASVKISCKASGYTFTDYNLHWVKHGKSLEWIGYIYPYDGDTGYKQKFKGKATLTADKSSSTAYMELRSLTCEDSAVYYCARGYGNSWGAYWGQGTLVTVSA VL: EIVLTQSPTTMAASPGEKITITCSATSSISSNYLHWYQQKPGFSPKLLIYRTSNLASGVPARFSGSGSGTSYSLTIGTMEAEDVATYYCQQGSSIPYTFGGGTKLEIK = 144
4) M4 mouse anti-huCB-1 antibody (antibody, V domains shown) VH: QVQLQQSGAELVRPGSSVKISCKASGYEFNYYWMNWVKQRPGQGLEWIGQIYPGDGDINYNGKFKGKATLTSDKSSSTVYMQLSSLTSEDSAVYFCSRSKGNPFAYWGQGTLVTVSA VL: DIQMTQTTSSLSASLGDSVTISCRASQGIRNYLNWYQQKPDGTVKLLIYYTSRLHSGVPPRFSGSGSGTDYSLTISNLEQEDLATYFCQQGNTLPYTFGGGTKLEIK = 97
5) M8 mouse anti-huCB-1 antibody (antibody, V domains shown) VH: QVQLQQPGAELVKPGASVKLSCKASGYTFTDYWMHWVKQRPGHGLEWIGEIYPSSGRANYNGNFKRKATLTVDKSSSTAYMQLSSLTSEDSAVYYCARSRGNYLPYWGHGTPVTVSA VL: QIVLTQSPAIMSASLGERVTMTCTAGSTVSSSYLHWYQQRPGSSPKLWIYGTSNLASGVPARFSGSGSGTSYSLTISSMEAEDAATYYCHQYHRSPPTFGGGTKLEIK = 36

This collection of values is drawn from patent US20220396620A1.
